- TARGET OR SYSTEM: human CMKLR1 (Homo sapiens, UniProt Q99788)
- Construct: host or cells: HEK293A (Invitrogen), stably expressing human Gα15
- PROTOCOL: Ca2+ mobilization (CellLux imaging) agonist assay in HEK293A cells expressing CMKLR1 and Gα15
- Format: cell-based
- PROTOCOL CONDITIONS: Ca2+ mobilization, CMKLR1; decimal comma; NR where no EC50 is given; read-out: EC50
Square brackets hold non-standard residues; d marks the D form. Peptide text beside a SMILES is read from it.
log10 of EC50 for assorted molecules
Annotation: log10 of EC50, nM basis.

These solved cases illustrate the format of a correct answer.
{"MOLECULE": "CC(C)[C@H](NC(=O)[C@@H](N)Cc1ccc(O)cc1)C(=O)N1CCC[C@H]1C(=O)NCC(=O)N[C@@H](CCC(N)=O)C(=O)N[C@@H](Cc1ccc(O)cc1)C(=O)N[C@@H](C)C(=O)N[C@@H](Cc1ccccc1)C(=O)N[C@H](CO)C(=O)O [compound 86] (H-YVPGQYAF[dS]-OH; N-terminus assumed)", "TARGET OR SYSTEM": "human CMKLR1 (Homo sapiens, UniProt Q99788)", "log10 of EC50": 1.34}
{"MOLECULE": "CC(C)C[C@H](NC(=O)[C@H](N)Cc1ccccc1)C(=O)N1CCC[C@H]1C(=O)NCC(=O)N[C@@H](CCC(N)=O)C(=O)N[C@@H](Cc1ccc(O)cc1)C(=O)N[C@@H](C)C(=O)N[C@@H](Cc1ccccc1)C(=O)N[C@H](CO)C(=O)O [compound 95] (H-[dF]LPGQYAF[dS]-OH; N-terminus assumed)", "TARGET OR SYSTEM": "human CMKLR1 (Homo sapiens, UniProt Q99788)", "log10 of EC50": 1.91}
{"MOLECULE": "CC(C)C[C@H](NC(=O)[C@H](Cc1ccc(O)cc1)NC(=O)[C@@H](Cc1ccccc1)NC(=O)[C@@H]1CCCN1C(=O)[C@H](CC(C)C)NC(=O)[C@@H](N)Cc1ccc(O)cc1)C(=O)N1CCC[C@H]1C(=O)NCC(=O)N[C@H](Cc1ccccc1)C(=O)O [compound 145] (H-YLP[dF]YLPG[dF]-OH; N-terminus assumed)", "TARGET OR SYSTEM": "human CMKLR1 (Homo sapiens, UniProt Q99788)", "log10 of EC50": 2.18}
{"MOLECULE": "CC(C)C[C@H](NC(=O)[C@@H](N)Cc1ccc(O)cc1)C(=O)N1CCC[C@H]1C(=O)NCC(=O)N[C@@H](CCC(N)=O)C(=O)N[C@@H](Cc1ccc(O)cc1)C(=O)N[C@@H](C)C(=O)N1CCC[C@@H]1C(=O)N[C@H](Cc1ccccc1)C(=O)O [compound 125] (H-YLPGQYA[dP][dF]-OH; N-terminus assumed)", "TARGET OR SYSTEM": "human CMKLR1 (Homo sapiens, UniProt Q99788)", "log10 of EC50": 1.16}

Now, please, on to the next molecule.
// CC(C)C[C@H](NC(=O)[C@H](Cc1ccccc1)NC(=O)[C@H](Cc1ccc(O)cc1)NC(=O)[C@@H]1CCCN1C(=O)[C@H]1CCCN1C(=O)[C@@H]1CCCN1C(=O)[C@H](CC(C)C)NC(=O)[C@H](N)Cc1ccc(O)cc1)C(=O)N[C@H](Cc1ccccc1)C(=O)O [compound 143] (H-[dY]LP[dP]PYFL[dF]-OH; N-terminus assumed) : log10 of EC50 value = 2.14

* * *

- PROTOCOL: In vitro peptide stability in human serum (RP-HPLC)
- PROTOCOL CONDITIONS: human, human serum, 25% (v/v) in RPMI
Ends that are not written are not given here.
RECORDED ENDPOINT: half-life at 50 µg/mL (min)
Answer in min, number only, no unit symbol.

These solved cases illustrate the format of a correct answer.
{"SUBSTANCE": "YLPGQYLFL-OH [compound 56]", "half-life at 50 µg/mL (min)": 19}
{"SUBSTANCE": "FLPGQYAFL-OH [compound 46]", "half-life at 50 µg/mL (min)": 28}
{"SUBSTANCE": "FLPGQPYFL-OH [compound 65]", "half-life at 50 µg/mL (min)": 32}

// YFPGQYAFF-OH [compound 30] : half-life at 50 µg/mL value = 26

// FLPGQYAFS-OH : half-life at 50 µg/mL value = 28

// FLPGQYAFK-OH [compound 64] : half-life at 50 µg/mL value = 26

* * *

- TARGET OR SYSTEM: human CMKLR1 (Homo sapiens, UniProt Q99788)
- Construct: host or cells: HEK293A (Invitrogen), stably expressing human Gα15
- Sequence (Q99788 1-373): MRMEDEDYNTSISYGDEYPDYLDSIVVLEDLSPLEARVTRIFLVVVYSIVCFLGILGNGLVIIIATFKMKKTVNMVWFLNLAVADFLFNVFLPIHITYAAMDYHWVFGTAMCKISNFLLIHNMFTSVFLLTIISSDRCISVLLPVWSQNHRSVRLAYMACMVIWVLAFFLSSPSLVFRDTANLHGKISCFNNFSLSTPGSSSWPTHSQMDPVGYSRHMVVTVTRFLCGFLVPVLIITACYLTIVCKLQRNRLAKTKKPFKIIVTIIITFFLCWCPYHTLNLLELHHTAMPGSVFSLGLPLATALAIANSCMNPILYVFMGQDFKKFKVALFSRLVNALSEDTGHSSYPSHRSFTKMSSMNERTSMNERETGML
- PROTOCOL: Ca2+ mobilization (CellLux imaging) agonist assay in HEK293A cells expressing CMKLR1 and Gα15
- Format: cell-based
- PROTOCOL CONDITIONS: Ca2+ mobilization, CMKLR1; decimal comma; NR where no EC50 is given; read-out: EC50
pEC50: −log10 of the molar value. Square brackets hold non-standard residues; d marks the D form. Peptide text beside a SMILES is read from it.
Classification field: yes = pEC50 at or over 6; no = pEC50 under 6.

A selection of reference data follows.
{"MOLECULE": "C[C@H](NC(=O)[C@@H](Cc1ccccc1)NC(=O)[C@H](CCC(N)=O)NC(=O)CNC(=O)[C@@H]1CCCN1C(=O)[C@H](Cc1ccccc1)NC(=O)[C@@H](N)Cc1ccc(O)cc1)C(=O)N[C@@H](Cc1c[nH]c2ccccc12)C(=O)N[C@@H](CO)C(N)=O [compound 13] (H-YFPGQ[dF]AWS-NH2; N-terminus assumed)", "LABEL VALUE": "no"}
{"MOLECULE": "CC(C)C[C@H](N)C(=O)N[C@H](Cc1c[nH]c2ccccc12)C(=O)NCC(=O)NCC(=O)N1CCC[C@H]1C(=O)N[C@@H](Cc1ccc(O)cc1)C(=O)N[C@H](Cc1c[nH]c2ccccc12)C(=O)N[C@@H](Cc1ccc(O)cc1)C(=O)N[C@H](CO)C(=O)O [compound 128] (H-L[dW]GGPY[dW]Y[dS]-OH; N-terminus assumed)", "LABEL VALUE": "yes"}
{"MOLECULE": "CC(C)C[C@H](N)C(=O)N[C@H](Cc1c[nH]c2ccccc12)C(=O)NCC(=O)NCC(=O)N1CCC[C@H]1C(=O)N[C@@H](Cc1ccc(O)cc1)C(=O)N[C@@H](C)C(=O)N[C@H](CC(=O)O)C(=O)N[C@@H](CO)C(=O)O [compound 131] (H-L[dW]GGPYA[dD]S-OH; N-terminus assumed)", "LABEL VALUE": "yes"}

For this molecule, is measured pEC50 6 or higher? CC(C)C[C@H](NC(=O)[C@@H](N)Cc1ccc(O)cc1)C(=O)N1CCC[C@H]1C(=O)NCC(=O)N[C@@H](CCC(N)=O)C(=O)N[C@@H](C)C(=O)N[C@H](Cc1ccccc1)C(=O)N[C@@H](Cc1ccccc1)C(=O)N[C@@H](CCCCN)C(=O)O [compound 78] (H-YLPGQA[dF]FK-OH; N-terminus assumed)
no

For this molecule, is measured pEC50 6 or higher? C[C@H](NC(=O)[C@H](Cc1ccccc1)NC(=O)[C@H](CCC(N)=O)NC(=O)[C@H]1CCCN1C(=O)CNC(=O)[C@H](Cc1ccccc1)NC(=O)[C@@H](N)Cc1ccc(O)cc1)C(=O)N[C@@H](Cc1ccccc1)C(=O)N[C@@H](CO)C(N)=O [compound 14] (H-YFG[dP]QFAFS-NH2; N-terminus assumed)
no

For this molecule, is measured pEC50 6 or higher? CC(C)C[C@H](NC(=O)[C@@H](N)Cc1ccc(O)cc1)C(=O)N1CCC[C@H]1C(=O)NCC(=O)N[C@@H](CCC(N)=O)C(=O)N[C@@H](Cc1ccc(O)cc1)C(=O)N[C@@H](C)C(=O)N[C@@H](Cc1ccc(O)cc1)C(=O)N[C@H](CO)C(=O)O [compound 87] (H-YLPGQYAY[dS]-OH; N-terminus assumed)
yes

For this molecule, is measured pEC50 6 or higher? CC(C)C[C@H](NC(=O)[C@H](C)NC(=O)[C@H](Cc1ccc(O)cc1)NC(=O)[C@@H](Cc1ccc(O)cc1)NC(=O)CNC(=O)[C@@H]1CCCN1C(=O)[C@H](CC(C)C)NC(=O)[C@@H](N)Cc1ccc(O)cc1)C(=O)N[C@H](Cc1ccccc1)C(=O)O [compound 136] (H-YLPG[dY]YAL[dF]-OH; N-terminus assumed)
yes
